target desc: Follistatin-related protein 3 (Homo sapiens) (UniProt O95633)
Sequence (O95633 whole entry, looked up): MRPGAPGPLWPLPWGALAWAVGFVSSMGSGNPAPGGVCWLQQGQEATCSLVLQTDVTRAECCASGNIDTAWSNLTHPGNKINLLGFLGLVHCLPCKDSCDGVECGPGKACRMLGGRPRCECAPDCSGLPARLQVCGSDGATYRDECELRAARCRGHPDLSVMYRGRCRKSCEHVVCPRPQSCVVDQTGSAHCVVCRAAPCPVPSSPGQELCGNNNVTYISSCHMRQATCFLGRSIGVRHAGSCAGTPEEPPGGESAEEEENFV
measurement protocol: FSTL3 binders on small-molecule microarrays, primary screen, biochemical, small-molecule microarray, 635 nm fluorescence (AID 1105);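 note: score merges emission near 667 nm and signal to noise per printed spot across three slides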
details: FSTL3 binding, higher = more signal
For each entry below, report its composite z-score value.
# answer = number (no unit)

What does the data say about its composite z-score? Entry: `[N-]=[N+]=Nc1ccccc1[C@H]1OC(c2ccc(OCCCO)cc2)=N[C@@]1(Cc1ccccc1)C(N)=O`
1.09

Could you share which composite z-score value was measured for `O=C1c2ccccc2[C@](Cc2ccccc2I)(C(=O)O)[C@H](c2ccc(CO)cc2)N1Cc1ccccc1Cl` ?
0.521

I would be grateful if you could share the reported composite z-score for C[C@@H](OCc1ccccc1)C1NC(=O)[C@@]23C(=O)N[C@@H](Cc4ccccc4)C2[C@H](C)[C@@]2(C)O[C@H]2C3/C=C/C/C=C\CNC(=O)[C@@H]2CCCN2C1=O (stereo not given in full) .
0.819

// lookup composite z-score for `O=c1n(-c2ccccc2)c(=O)n2n1CC(COc1ccccc1)=C1[C@@H](CCc3ccccc3)OB(O)C[C@@H]12`
0.728

Any idea what its composite z-score is? The compound is `CC(C)(C)OC(=O)CC[C@]1(C(=O)NCc2ccccc2)N=C(c2ccc(OCCCO)cc2)O[C@H]1c1ccccc1N=[N+]=[N-]`
1

Consider the compound shown here: `COc1ccc(CCNC(=O)[C@@]2(Sc3ccc(C)cc3)CC(=O)N(Cc3ccccc3)[C@@H]2c2ccc(CO)cc2I)cc1` What is its recorded composite z-score?
0.149

Could you tell me which composite z-score is on file for C=CCC(OC(C)=O)[C@@H]1[C@@H](N(Cc2cccc3ccccc23)C(=O)c2cccc3ccccc23)c2cc(OCCCO)ccc2N1C(=O)Cc1ccc(OC)cc1 (stereo not given in full) ?
0.478

Could you tell me which composite z-score is on file for `C=C(/C(=C/C[C@H](OC(=O)c1ccncc1)c1cccc(OCCO)c1)c1cc(C(=O)OC)ccc1OC)C(C)C` ?
-0.127

Please look up its composite z-score: CC1CC/C=C\[C@H]2OC34C=CCN(C(C)C)C(=O)[C@H]3N(C(CO)C(C)C)C(=O)[C@@H]4C2C(=O)O1 (stereo not given in full)
-0.253

May I ask what composite z-score has been recorded for `CC(C)CNC(=O)[C@@H]1c2ccccc2C(=O)N(Cc2ccc(OC(F)(F)F)cc2)[C@H]1c1ccc(CO)cc1` ?
1.26

Reported composite z-score for `CC(C)(C)OC(=O)CC[C@@]1(C(=O)NCc2ccccc2)N=C(c2ccc(OCCCO)cc2)O[C@@H]1c1ccccc1CN=[N+]=[N-]` : what is it?
0.622

Can you share its composite z-score? I mean this compound: `CC(C)N1C(=O)c2ccccc2[C@@H](C(=O)NCc2ccccc2)[C@@H]1c1ccc(CO)cc1`
-0.0398

GET /values?readout=composite z-score&item= `C#CCOc1ccc(C[C@H]2C(=O)O[C@H](Cc3ccccc3)[C@H](/C=C/C3CC3)N2CC#C)cc1`
-0.566

Return reported composite z-score; argument: `[N-]=[N+]=NCc1ccccc1C[C@]1(C(=O)NCc2ccccc2)N=C(c2ccc(OCCCO)cc2)O[C@H]1c1ccccc1`
-0.565

I would be grateful if you could share the reported composite z-score for `CCCCC(=C=CC[C@@H](O)c1ccc(OCCO)cc1)C[C@@H](O)c1cc(Cl)cc(Cl)c1O` .
-0.0492
